- Test system: DL1 cells
- Method: cytotoxicity in Drosophila DL1 cells
- Type: cell-based
- Test Settings: DL1 cells, 10 µM, replicate 2
Sorting guide: entries reporting Luminescence Raw2 beneath 200000 go in the T pile, the rest go in the F pile.

Answered examples (4):
[
  {
    "Molecule": "C=C1CCC2C(C)(CCC=C(C)C)C(O)CCC2(C)C1Cc1c(OC)oc(C)c(C)c1=O (centres unmarked)",
    "Discrete Label": "F"
  },
  {
    "Molecule": "C=C1CC[C@H]2[C@]3(C)C[C@@H](C=C(C)C)O[C@H]3CC[C@]2(C)[C@@H]1Cc1c(O)c(C)c(C)oc1=O",
    "Discrete Label": "T"
  },
  {
    "Molecule": "C=C1CCC2C3(C)CC(C=C(C)C)OC3CCC2(C)C1Cc1c(OC)oc(C)c(C)c1=O (centres unmarked)",
    "Discrete Label": "T"
  },
  {
    "Molecule": "C=C1CCC2C(C)(CC(=O)C=C(C)C)C(O)CCC2(C)C1Cc1c(OC)oc(C)c(C)c1=O (centres unmarked)",
    "Discrete Label": "F"
  }
]

Note: attention shifts to another entry.
Q. Consider `C=C1CC[C@H]2[C@]3(C)C[C@H](C=C(C)C)O[C@H]3CC[C@]2(C)[C@@H]1Cc1c(O)c(C)c(C)oc1=O` . Does its Luminescence Raw2 lie strictly below 200000?
A. T

----------
- Assay System: Aβ42 (Homo sapiens, UniProt P05067)
- Sequence (P05067 672-713): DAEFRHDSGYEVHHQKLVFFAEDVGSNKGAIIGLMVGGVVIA
- Method: Th-T (thioflavin-T) assay of Aβ42 aggregation
- Format: biochemical
- Test Settings: compound at 20; reading M50 of time course
Reported Metric: Th-T fluorescence, mean of three wells
Keep it simple and answer with nothing but the number.

Below are worked cases with known answers.
[
  {
    "Compound": "C=C1CC[C@@H]2[C@](C)(CC[C@H]3O[C@H](C=C(C)C)C[C@@]23C)[C@@H]1Cc1c(OC)oc(CO)c(C(=O)OC)c1=O [Compound 21]",
    "Assay System": "Aβ42 (Homo sapiens, UniProt P05067)",
    "Readout Number": 0.2164
  },
  {
    "Compound": "C=C1CCC2C(C)(CCC=C(C)C)C(O)CCC2(C)C1Cc1c(OC)oc(C)c(C(=O)OC)c1=O (centres unmarked) [Compound 14]",
    "Assay System": "Aβ42 (Homo sapiens, UniProt P05067)",
    "Readout Number": 2.15
  },
  {
    "Compound": "C=C1CCC2C(C)(CCC=C(C)C)C(O)CCC2(C)C1Cc1c(OC)oc(CO)c(C(=O)OC)c1=O (centres unmarked) [Compound 13]",
    "Assay System": "Aβ42 (Homo sapiens, UniProt P05067)",
    "Readout Number": 0.6948
  },
  {
    "Compound": "C=C1CC[C@@H]2[C@](C)(CC[C@H]3O[C@H](C=C(C)C)C[C@@]23C)[C@@H]1Cc1c(OC)oc(CO)c(C)c1=O [Compound 20]",
    "Assay System": "Aβ42 (Homo sapiens, UniProt P05067)",
    "Readout Number": 3.443
  }
]

// next entry
Q. Suppose we examine the compound C=C1CCC2C(C)(CCC=C(C)C)C(O)CCC2(C)C1Cc1c(OC)oc(CO)c(C)c1=O (centres unmarked) [Compound 12] ; what Th-T fluorescence, mean of three wells value has been reported?
A. 2.1392

----------
- Assay System: Aβ42 (Homo sapiens)
- Method: Th-T (thioflavin-T) assay of Aβ42 aggregation
- Format: biochemical
- Test Settings: measurement M9; source data, Ab alone and No Ab as controls
Examples of compounds with documented Th-T assay plate reading, mean of three wells (Supplementary Fig. 47) follow.
Keep it simple and answer with nothing but the number.

[
  {
    "Compound": "C=C1CC[C@H]2[C@]3(C)C[C@H](C=C(C)C)O[C@H]3CC[C@]2(C)[C@@H]1Cc1c(OC)oc(C)c(C)c1=O",
    "Readout Number": 0.4389
  },
  {
    "Compound": "C=C1CCC2C(C)(CCC=C(C)C)C(O)CCC2(C)C1Cc1c(OC)oc(C)c(C)c1=O (stereo not drawn) [Compound 15, viridoxin A hydrolysate]",
    "Readout Number": 0.4623
  }
]

Q. Given the entry `C=C1CC[C@@H]2[C@](C)(CC[C@H]3O[C@H](C=C(C)C)C[C@@]23C)[C@@H]1Cc1c(OC)oc(CO)c(C(=O)OC)c1=O` , what Th-T assay plate reading, mean of three wells (Supplementary Fig. 47) was observed with Aβ42 (Homo sapiens)?
A. 0.193

----------
Examples of molecules with documented Fig. 7a Th-T reading, mean of three wells follow.
- Assay System: UniProtKB P05067
- Method: Th-T (thioflavin-T) assay of Aβ42 aggregation
- Assay type: biochemical
- Test Settings: column suffix _10; reading M102
Keep it simple and answer with nothing but the number.

Below are worked cases with known answers.
[
  {
    "Molecule": "C=C1CC[C@@H]2[C@](C)(CC[C@H]3O[C@H](C=C(C)C)C[C@@]23C)[C@@H]1Cc1c(OC)oc(CO)c(C)c1=O",
    "Readout Number": 3.28
  },
  {
    "Molecule": "C=C1CCC2C(C)(CCC=C(C)C)C(O)CCC2(C)C1Cc1c(OC)oc(C)c(C(=O)OC)c1=O (centres unmarked)",
    "Readout Number": 2.84
  },
  {
    "Molecule": "C=C1CCC2C(C)(CCC=C(C)C)C(O)CCC2(C)C1Cc1c(OC)oc(CO)c(C(=O)OC)c1=O (centres unmarked)",
    "Readout Number": 1.552
  },
  {
    "Molecule": "C=C1CCC2C(C)(CCC=C(C)C)C(O)CCC2(C)C1Cc1c(OC)oc(CO)c(C)c1=O (centres unmarked)",
    "Readout Number": 2.835
  }
]

Q. Suppose we examine the molecule `C=C1CC[C@@H]2[C@](C)(CC[C@H]3O[C@H](C=C(C)C)C[C@@]23C)[C@@H]1Cc1c(OC)oc(CO)c(C(=O)OC)c1=O` ; what Fig. 7a Th-T reading, mean of three wells value has been reported?
A. 1.607

----------
- Assay System: UniProt P05067
- Method: Th-T (thioflavin-T) assay of Aβ42 aggregation
- Assay type: biochemical
- Test Settings: column suffix _50; reading M99
Reported Metric: Fig. 7a Th-T reading, mean of three wells

Below are worked cases with known answers.
[
  {
    "Molecule": "C=C1CCC2C(C)(CCC=C(C)C)C(O)CCC2(C)C1Cc1c(OC)oc(C)c(C(=O)OC)c1=O (centres unmarked)",
    "Result": 1.482
  },
  {
    "Molecule": "C=C1CC[C@@H]2[C@](C)(CC[C@H]3O[C@H](C=C(C)C)C[C@@]23C)[C@@H]1Cc1c(OC)oc(CO)c(C)c1=O",
    "Result": 2.099
  },
  {
    "Molecule": "C=C1CCC2C(C)(CCC=C(C)C)C(O)CCC2(C)C1Cc1c(OC)oc(CO)c(C(=O)OC)c1=O (centres unmarked)",
    "Result": 0.4742
  },
  {
    "Molecule": "C=C1CCC2C(C)(CCC=C(C)C)C(O)CCC2(C)C1Cc1c(OC)oc(CO)c(C)c1=O (centres unmarked)",
    "Result": 1.397
  }
]

Q. Suppose we examine the molecule `C=C1CC[C@@H]2[C@](C)(CC[C@H]3O[C@H](C=C(C)C)C[C@@]23C)[C@@H]1Cc1c(OC)oc(CO)c(C(=O)OC)c1=O` ; what Fig. 7a Th-T reading, mean of three wells value has been reported?
A. 0.4696

----------
- Assay System: Aβ42 (Homo sapiens)
- Method: Th-T (thioflavin-T) assay of Aβ42 aggregation
- Type: biochemical
- Test Settings: column suffix _10; reading M95
Reported Metric: Fig. 7a Th-T reading, mean of three wells
Keep it simple and answer with nothing but the number.

[
  {
    "Molecule": "C=C1CCC2C(C)(CCC=C(C)C)C(O)CCC2(C)C1Cc1c(OC)oc(CO)c(C(=O)OC)c1=O (centres unmarked) [Compound 13]",
    "Assay System": "Aβ42 (Homo sapiens)",
    "Readout Number": 1.563
  },
  {
    "Molecule": "C=C1CCC2C(C)(CCC=C(C)C)C(O)CCC2(C)C1Cc1c(OC)oc(CO)c(C)c1=O (centres unmarked) [Compound 12]",
    "Assay System": "Aβ42 (Homo sapiens)",
    "Readout Number": 2.948
  }
]

Q. Suppose we examine the molecule C=C1CC[C@@H]2[C@](C)(CC[C@H]3O[C@H](C=C(C)C)C[C@@]23C)[C@@H]1Cc1c(OC)oc(CO)c(C(=O)OC)c1=O [Compound 21] ; what Fig. 7a Th-T reading, mean of three wells value has been reported?
A. 1.661

Q. Suppose we examine the molecule C=C1CCC2C(C)(CCC=C(C)C)C(O)CCC2(C)C1Cc1c(OC)oc(C)c(C(=O)OC)c1=O (centres unmarked) [Compound 14] ; what Fig. 7a Th-T reading, mean of three wells value has been reported?
A. 2.8555

Q. Suppose we examine the molecule C=C1CC[C@@H]2[C@](C)(CC[C@H]3O[C@H](C=C(C)C)C[C@@]23C)[C@@H]1Cc1c(OC)oc(CO)c(C)c1=O [Compound 20] ; what Fig. 7a Th-T reading, mean of three wells value has been reported?
A. 3.309

These data points were gathered from paper PMC7156458.
